# assay-notes: Renal clearance in normal weight human at 236 mg infused over 30 mins
# Assay type: ADME, organism-based, Kidney
# test-conditions: in vivo, iv, read-out: CL_renal (converted)
attribute-measured: CL renal at 0.5 h (mL/min)
Numbers only; they are read as mL/min.

Request: Fill in: CL renal at 0.5 h of CCCCCCCCCC(=O)N[C@@H](Cc1c[nH]c2ccccc12)C(=O)N[C@H](CC(N)=O)C(=O)N[C@@H](CC(=O)O)C(=O)N[C@@H]1C(=O)NCC(=O)N[C@@H](CCCN)C(=O)N[C@@H](CC(=O)O)C(=O)N[C@H](C)C(=O)N[C@@H](CC(=O)O)C(=O)NCC(=O)N[C@H](CO)C(=O)N[C@@H]([C@H](C)CC(=O)O)C(=O)N[C@@H](CC(=O)c2ccccc2N)C(=O)O[C@@H]1C is ___
Response: 9.83
